Give Supplementary Table 4: EC50 of β-arrestin-1 recruitment to MOR, U87 cells for every item shown.
- TARGET ENTITY: mu opioid receptor (MOR) (human) (UniProt P35372)
- Sequence (P35372 whole entry): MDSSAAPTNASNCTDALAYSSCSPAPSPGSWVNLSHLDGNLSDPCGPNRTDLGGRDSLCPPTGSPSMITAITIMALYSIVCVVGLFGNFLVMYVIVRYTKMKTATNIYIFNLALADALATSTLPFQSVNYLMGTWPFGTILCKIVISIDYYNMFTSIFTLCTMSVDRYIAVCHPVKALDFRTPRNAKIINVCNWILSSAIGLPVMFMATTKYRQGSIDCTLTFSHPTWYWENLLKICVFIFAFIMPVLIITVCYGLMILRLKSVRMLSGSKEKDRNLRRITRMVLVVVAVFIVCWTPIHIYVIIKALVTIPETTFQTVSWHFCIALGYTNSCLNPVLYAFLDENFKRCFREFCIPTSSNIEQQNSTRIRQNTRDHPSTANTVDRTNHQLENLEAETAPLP
No end group written: not given here.
Report as a plain number; the unit nM is understood.

stdin: Report measured Supplementary Table 4: EC50 of β-arrestin-1 recruitment to MOR, U87 cells; entry is YGGFLRRV-NH2 [adrenorphin-derived peptide YGGFLRRV]
stdout: 880

stdin: Output Supplementary Table 4: EC50 of β-arrestin-1 recruitment to MOR, U87 cells of AYGGFMRRV-NH2
stdout: 308

stdin: Give the reported Supplementary Table 4: EC50 of β-arrestin-1 recruitment to MOR, U87 cells for this binder. YAGFMRRV-NH2 [adrenorphin-derived peptide YAGFMRRV]
stdout: 1090

stdin: Tell me its Supplementary Table 4: EC50 of β-arrestin-1 recruitment to MOR, U87 cells given YGGFMRRK-NH2 [adrenorphin-derived peptide YGGFMRRK] as the entry.
stdout: 252

stdin: State its Supplementary Table 4: EC50 of β-arrestin-1 recruitment to MOR, U87 cells for this binder: YGGFMRRVA-NH2
stdout: 174

stdin: Supply reported Supplementary Table 4: EC50 of β-arrestin-1 recruitment to MOR, U87 cells belonging to this binder: YGGFMRRF-NH2 [adrenorphin-derived peptide YGGFMRRF]
stdout: 198

stdin: Please indicate Supplementary Table 4: EC50 of β-arrestin-1 recruitment to MOR, U87 cells recorded for YGGFMRRQ-NH2 [adrenorphin-derived peptide YGGFMRRQ]
stdout: 183

stdin: Name the recorded Supplementary Table 4: EC50 of β-arrestin-1 recruitment to MOR, U87 cells of the item YGGFMKRV-NH2 [adrenorphin-derived peptide YGGFMKRV] in your answer.
stdout: 63.8

stdin: Let me know recorded Supplementary Table 4: EC50 of β-arrestin-1 recruitment to MOR, U87 cells for YGGFMRRA-NH2 [adrenorphin-derived peptide YGGFMRRA] , thanks.
stdout: 265

stdin: Quickly give me recorded Supplementary Table 4: EC50 of β-arrestin-1 recruitment to MOR, U87 cells for YGGFMRRVC-NH2 (also: dimer of two chains) [adrenorphin-derived peptide (…)2]
stdout: 271

stdin: Read off the recorded Supplementary Table 4: EC50 of β-arrestin-1 recruitment to MOR, U87 cells for YGGFMRAV-NH2 [adrenorphin-derived peptide YGGFMRAV]
stdout: 682

stdin: For the binder YGGFQRRV-NH2 [adrenorphin-derived peptide YGGFQRRV] , report Supplementary Table 4: EC50 of β-arrestin-1 recruitment to MOR, U87 cells.
stdout: 5000

stdin: Let me know recorded Supplementary Table 4: EC50 of β-arrestin-1 recruitment to MOR, U87 cells for YGGWMRRV-NH2 [adrenorphin-derived peptide YGGWMRRV] , thanks.
stdout: 522

stdin: Please give measured Supplementary Table 4: EC50 of β-arrestin-1 recruitment to MOR, U87 cells of the following entry: YGGFMRRVR-NH2
stdout: 58.7

stdin: Return Supplementary Table 4: EC50 of β-arrestin-1 recruitment to MOR, U87 cells (reported value) for this binder: YGGFMRKV-NH2 [adrenorphin-derived peptide YGGFMRKV]
stdout: 786

stdin: Answer with the recorded Supplementary Table 4: EC50 of β-arrestin-1 recruitment to MOR, U87 cells for the binder listed here: YGGFMARV-NH2 [adrenorphin-derived peptide YGGFMARV]
stdout: 35.4

stdin: Supply Supplementary Table 4: EC50 of β-arrestin-1 recruitment to MOR, U87 cells value. Item: YGGFMRRL-NH2 [adrenorphin-derived peptide YGGFMRRL]
stdout: 294

stdin: Retrieve Supplementary Table 4: EC50 of β-arrestin-1 recruitment to MOR, U87 cells measured for YGGFFRRV-NH2 [adrenorphin-derived peptide YGGFFRRV] and print it.
stdout: 363

stdin: // Input: YGGFMRRI-NH2 [adrenorphin-derived peptide YGGFMRRI] . Output its Supplementary Table 4: EC50 of β-arrestin-1 recruitment to MOR, U87 cells only.
stdout: 188
